src = patent US10626081B2

molecular target: FXR (Homo sapiens, UniProt Q96RI1); experiment: In Vitro FXR Assay (TK): TK-ECRE-luc reporter in transfected CV-1 cells; settings: CV-1 cells transfected with hFXR, hRXR, 18 h incubation, luminescence
Sequence (Q96RI1 whole entry): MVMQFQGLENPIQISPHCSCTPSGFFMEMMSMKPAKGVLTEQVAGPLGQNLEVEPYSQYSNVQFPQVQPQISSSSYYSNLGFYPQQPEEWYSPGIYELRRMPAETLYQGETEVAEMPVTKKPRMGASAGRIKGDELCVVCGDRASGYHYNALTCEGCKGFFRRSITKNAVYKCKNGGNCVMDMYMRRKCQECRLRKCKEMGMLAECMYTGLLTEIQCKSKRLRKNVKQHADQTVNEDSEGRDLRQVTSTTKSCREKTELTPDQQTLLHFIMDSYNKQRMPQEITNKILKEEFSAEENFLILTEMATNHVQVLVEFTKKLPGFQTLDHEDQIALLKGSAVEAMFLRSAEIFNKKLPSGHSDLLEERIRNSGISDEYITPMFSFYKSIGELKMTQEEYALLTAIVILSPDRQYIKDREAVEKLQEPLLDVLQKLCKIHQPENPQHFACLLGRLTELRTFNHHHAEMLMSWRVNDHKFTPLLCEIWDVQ
Sequence (P19793 whole entry partner): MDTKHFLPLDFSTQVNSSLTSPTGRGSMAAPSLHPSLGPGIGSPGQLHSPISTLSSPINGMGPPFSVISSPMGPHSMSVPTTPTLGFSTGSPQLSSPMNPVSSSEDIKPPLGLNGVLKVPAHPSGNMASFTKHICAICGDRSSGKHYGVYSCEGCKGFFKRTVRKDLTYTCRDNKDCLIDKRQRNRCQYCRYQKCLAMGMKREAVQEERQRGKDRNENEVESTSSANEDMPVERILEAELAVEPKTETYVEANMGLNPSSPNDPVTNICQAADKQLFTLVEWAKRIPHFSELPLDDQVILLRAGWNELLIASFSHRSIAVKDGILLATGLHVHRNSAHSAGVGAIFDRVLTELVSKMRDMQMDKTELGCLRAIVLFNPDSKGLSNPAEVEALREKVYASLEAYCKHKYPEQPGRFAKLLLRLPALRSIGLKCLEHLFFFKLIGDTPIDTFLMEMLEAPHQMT
Listed here are compounds together with their documented EC50.

A selection of reference data follows.
{"COMPOUND": "COC(=O)CCc1ccc(C)c(N(Cc2ccc(-c3ccc(N(C)C)cc3)cc2)C(=O)C2CCCCC2)c1 [compound 93]", "RECORDED_MEASUREMENT": "> 10000 nM"}
{"COMPOUND": "COC(=O)/C=C/c1cccc(N(Cc2ccc(-c3ccc(N(C)C)cc3)cc2)C(=O)c2ccc(F)c(F)c2)c1 [13.1]", "RECORDED_MEASUREMENT": "1000 to 10000 nM"}
{"COMPOUND": "COC(=O)/C=C/c1cccc(N(Cc2ccc(-c3ccc4c(c3)c(F)nn4C)cc2)C(=O)C2CCCCC2)c1 [75.18]", "RECORDED_MEASUREMENT": "≤ 1000 nM"}

EC50 for COC(=O)/C=C/c1cccc(N(Cc2ccc(-c3ccc(N(C)C)nc3)cc2)C(=O)C2CCCCC2)c1 [compound 38] is ≤ 1000 nM
